target or test system: Large T antigen (Simian virus 40);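 note: Confirmatory-stage PubChem screen for compounds that inhibit SV40 T antigen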
Sequence (P03070 whole entry): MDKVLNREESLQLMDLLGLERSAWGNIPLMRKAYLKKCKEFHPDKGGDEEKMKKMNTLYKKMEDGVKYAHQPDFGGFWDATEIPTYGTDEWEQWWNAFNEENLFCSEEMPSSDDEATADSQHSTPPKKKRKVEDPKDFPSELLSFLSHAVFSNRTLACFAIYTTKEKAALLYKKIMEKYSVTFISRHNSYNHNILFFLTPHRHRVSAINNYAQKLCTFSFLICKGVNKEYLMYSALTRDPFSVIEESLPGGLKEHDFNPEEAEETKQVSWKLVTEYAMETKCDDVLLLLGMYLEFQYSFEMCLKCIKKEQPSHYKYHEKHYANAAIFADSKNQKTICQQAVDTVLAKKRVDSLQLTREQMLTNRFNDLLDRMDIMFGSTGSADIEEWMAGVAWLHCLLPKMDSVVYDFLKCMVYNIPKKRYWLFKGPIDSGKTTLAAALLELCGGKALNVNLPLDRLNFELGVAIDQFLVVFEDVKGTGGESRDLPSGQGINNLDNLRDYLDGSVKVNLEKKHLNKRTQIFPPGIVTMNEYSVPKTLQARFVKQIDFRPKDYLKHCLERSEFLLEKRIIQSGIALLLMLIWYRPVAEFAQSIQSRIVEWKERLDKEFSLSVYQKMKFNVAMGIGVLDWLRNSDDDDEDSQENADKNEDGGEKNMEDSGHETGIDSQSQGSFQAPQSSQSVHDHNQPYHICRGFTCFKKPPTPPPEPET
Assay type: functional, Betapolyomavirus macacae
Active and inactive are the calls of the source.
endpoint label: IC50

# example entries with known answers
CSS(=O)(=O)c1cccc2cccnc12; 65.2 µM (active)
Cc1c(N=C2NC(=O)/C(=C/c3ccc(O)cc3)S2)c(=O)n(-c2ccccc2)n1C; 33.1 µM (active)

// returns reported IC50 for input C=C1CC(C(=O)N/N=C/c2ccc(O)cc2)C1
9.17 µM (active)

====

AC50 reference
target or test system: Paired box protein Pax-8 (Homo sapiens, UniProt Q06710)
Sequence (Q06710 whole entry): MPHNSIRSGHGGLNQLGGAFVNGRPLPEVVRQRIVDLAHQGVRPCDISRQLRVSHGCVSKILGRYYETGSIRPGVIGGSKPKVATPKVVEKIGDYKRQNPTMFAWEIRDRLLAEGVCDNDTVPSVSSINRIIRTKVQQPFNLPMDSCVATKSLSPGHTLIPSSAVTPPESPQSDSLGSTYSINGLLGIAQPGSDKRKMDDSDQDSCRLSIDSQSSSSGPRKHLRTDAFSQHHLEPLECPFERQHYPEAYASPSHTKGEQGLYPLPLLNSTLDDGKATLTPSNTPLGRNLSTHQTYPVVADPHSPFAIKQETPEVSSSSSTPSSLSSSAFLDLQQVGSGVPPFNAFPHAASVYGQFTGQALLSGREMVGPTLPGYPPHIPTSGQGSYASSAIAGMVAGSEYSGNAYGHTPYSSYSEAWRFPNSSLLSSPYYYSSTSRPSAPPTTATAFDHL
assay info: PAX8 transcriptional activity inhibition in RMG-I – RMG-I cells, luciferase, cherry-pick, dose response (AID 687027);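 note: luciferase reporter driven by Pax8 target thyroperoxidase promoter measured by SteadyGlo luminescence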
Format: functional, cell-based
Active and inactive are the calls of the source.

# example entries with known answers
C[C@@H]1CN([C@@H](C)CO)C(=O)Cc2cc(NC(=O)Nc3ccc(C(F)(F)F)cc3)ccc2O[C@H]1CN(C)C(=O)NC1CCCCC1; 8.4 µM (active)
O=C(CCl)N(c1ccccc1)C1CCCCC1; 3.98 µM (active)
O=C(C[C@H]1C[C@@H]2c3cc(NC(=O)Nc4ccc(C(F)(F)F)cc4)ccc3O[C@@H]2[C@@H](CO)O1)NCCc1ccccc1; 2.07 µM (active)
C[C@H](CO)N1C[C@H](C)[C@H](CN(C)C(=O)c2ccccc2)OCCCC[C@H](C)Oc2ccc(NC(=O)Nc3ccc(C(F)(F)F)cc3)cc2C1=O; 5.26 µM (active)

// returns reported AC50 for input O=C(Nc1ccccc1F)N1CCCCN2[C@@H](CO)[C@@H](c3ccc(/C=C/c4ccccc4)cc3)[C@@H]2C1
7.96 µM (active)

Could you do the same for C[C@@H]1CCCCO[C@@H](CN(C)Cc2ccccc2)[C@@H](C)CN([C@@H](C)CO)C(=O)c2cc(NS(=O)(=O)c3ccc(Cl)cc3)ccc2O1 , please?
5.43 µM (active)

Could you do the same for COc1ccc(/C=C2\CN(Cc3ccccc3)C/C(=C\c3ccc(OC)cc3OC)C2=O)c(OC)c1 , please?
10.4 µM (active)

Could you do the same for C[C@@H]1CCCCO[C@H](CN(C)Cc2ccc(C(F)(F)F)cc2)[C@H](C)CN([C@@H](C)CO)C(=O)c2cc(NS(=O)(=O)c3cccs3)ccc2O1 , please?
9.41 µM (active)

Could you do the same for COc1ccc(S(=O)(=O)Nc2ccc3c(c2)C(=O)N([C@H](C)CO)C[C@H](C)[C@@H](CN(C)S(=O)(=O)c2ccc(F)cc2)OCCCC[C@H](C)O3)cc1 , please?
3.96 µM (active)

Could you do the same for CC(C)=CCC/C(C)=C/CN1C(=O)N(c2ccc(F)cc2)[C@H]2C[C@@H](c3ccccc3)[C@@H](C)[C@@H](C(=O)N3CCOCC3)C[C@H]21 , please?
2.66 µM (active)

Could you do the same for Cc1ccc(S(=O)(=O)Nc2ccc3c(c2)C(=O)N([C@H](C)CO)C[C@H](C)[C@@H](CN(C)S(=O)(=O)c2ccc(F)cc2)OCCCC[C@H](C)O3)cc1 , please?
2.11 µM (active)

====

target or test system: Ubiquitin-conjugating enzyme E2 N (Homo sapiens)
Sequence (P61088 whole entry): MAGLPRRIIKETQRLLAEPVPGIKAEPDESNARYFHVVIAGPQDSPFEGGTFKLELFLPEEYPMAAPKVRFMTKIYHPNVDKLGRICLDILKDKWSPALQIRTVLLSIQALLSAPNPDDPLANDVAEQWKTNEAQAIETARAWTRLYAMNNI
Assay type: functional
Calls of active or inactive are those of the source.
IC50 reference

# example entries with known answers
CC(C)CC(C(=O)NC(C)(C)C)N(CC1CCCO1)C(=O)c1snc(C(N)=O)c1N (stereo not given); 11.2 µM (active)
Cc1cc(C(C)(C)CC(C)(C)C)ccc1OCCOCC[N+](C)(C)Cc1ccccc1; 9.49 µM (active)
O=C(Nc1ccc(C2=NCCN2)cc1)c1ccc(C(=O)Nc2ccc(C3=NCCN3)cc2)c(Cl)c1; 1.7 µM (active)
Cc1ccccc1CNC(=O)CCCC(=O)n1nc(C)c2ccccc21; 20 µM (active)

Query molecule follows.
For the record Cc1cccc2c1c(/N=N/C(=N)S)c(O)n2C1OC(CO)C(O)C(O)C1O (stereo not given) , what value of IC50 is listed for Ubiquitin-conjugating enzyme E2 N (Homo sapiens)?
4.56 µM (active)

====

target or test system: Heat shock factor protein 1 (Mus musculus)
Sequence (P38532 whole entry): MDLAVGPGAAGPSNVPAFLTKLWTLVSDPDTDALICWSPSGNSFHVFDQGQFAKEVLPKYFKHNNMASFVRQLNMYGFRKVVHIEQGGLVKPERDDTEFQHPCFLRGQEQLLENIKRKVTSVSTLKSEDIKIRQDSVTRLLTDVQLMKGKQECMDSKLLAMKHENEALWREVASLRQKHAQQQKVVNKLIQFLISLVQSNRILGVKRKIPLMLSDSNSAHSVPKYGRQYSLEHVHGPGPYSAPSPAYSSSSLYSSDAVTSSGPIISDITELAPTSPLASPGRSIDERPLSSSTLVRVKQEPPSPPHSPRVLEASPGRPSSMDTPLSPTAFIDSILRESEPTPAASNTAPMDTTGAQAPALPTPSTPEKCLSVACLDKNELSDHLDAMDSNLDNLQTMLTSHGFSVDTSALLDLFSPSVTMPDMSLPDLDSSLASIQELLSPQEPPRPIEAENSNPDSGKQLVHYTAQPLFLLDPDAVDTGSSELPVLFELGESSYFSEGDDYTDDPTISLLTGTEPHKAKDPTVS
assay info: decrease of HSF1-responsive luciferase luminescence – cell-based, NIH3T3, dose retest, confirmation (AID 2382);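 note: NIH3T3 fibroblasts with HSF1-driven luciferase reporter stressed by proteasome inhibitor MG132; luminescence from HSF1-driven luciferase expression after 8 hours of MG132 stress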
Assay type: functional
Active and inactive are the calls of the source.
endpoint label: EC50

# example entries with known answers
Sc1nnc(-c2cnccn2)n1-c1ccccc1; > 195 µM (not active)
Cn1c(=O)c2c(SCC(=O)N3CCCc4ccccc43)nc(C3CC3)nc2n(C)c1=O; > 195 µM (not active)
O=C(CCl)N(c1ccccc1)C1CCCCC1; 4.98 µM (active)

// returns reported EC50 for input OC(COc1ccc2ccccc2c1Br)Cn1cnc(-c2ccccc2)c1 (stereo unspecified)
> 195 µM (not active)

Could you do the same for CC(C)n1cc(/C=N/Nc2ccc(C(=O)O)cc2)c2ccccc21 , please?
< 0.16 µM (active)

Could you do the same for N#Cc1c(NC(=O)CSc2ncccn2)oc(-c2ccccc2)c1-c1ccccc1 , please?
9.25 µM (active)

Could you do the same for COc1ccc(NC(=O)C2CC2)cc1-n1cnnn1 , please?
> 195 µM (not active)

Could you do the same for COc1ccc(OC(C)C(=O)N2CCC(C)CC2)cc1 (stereo unspecified) , please?
> 195 µM (not active)

Could you do the same for COc1ccc(S(=O)(=O)NCC2CCCN(C(=O)C3CCCC3)C2)cc1 (stereo unspecified) , please?
> 195 µM (not active)

====

target or test system: SUMO-activating enzyme (Homo sapiens)
Sequence (Q9UBE0 whole entry): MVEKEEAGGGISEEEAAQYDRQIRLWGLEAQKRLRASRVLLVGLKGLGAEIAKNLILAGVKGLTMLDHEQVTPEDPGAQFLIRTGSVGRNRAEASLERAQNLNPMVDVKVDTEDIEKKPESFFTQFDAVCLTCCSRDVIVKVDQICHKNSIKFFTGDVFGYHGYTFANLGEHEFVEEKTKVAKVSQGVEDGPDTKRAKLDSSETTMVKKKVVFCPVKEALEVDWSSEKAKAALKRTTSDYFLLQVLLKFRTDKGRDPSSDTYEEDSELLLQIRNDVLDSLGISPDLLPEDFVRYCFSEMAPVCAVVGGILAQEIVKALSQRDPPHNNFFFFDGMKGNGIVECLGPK
Sequence (Q9UBT2 whole entry): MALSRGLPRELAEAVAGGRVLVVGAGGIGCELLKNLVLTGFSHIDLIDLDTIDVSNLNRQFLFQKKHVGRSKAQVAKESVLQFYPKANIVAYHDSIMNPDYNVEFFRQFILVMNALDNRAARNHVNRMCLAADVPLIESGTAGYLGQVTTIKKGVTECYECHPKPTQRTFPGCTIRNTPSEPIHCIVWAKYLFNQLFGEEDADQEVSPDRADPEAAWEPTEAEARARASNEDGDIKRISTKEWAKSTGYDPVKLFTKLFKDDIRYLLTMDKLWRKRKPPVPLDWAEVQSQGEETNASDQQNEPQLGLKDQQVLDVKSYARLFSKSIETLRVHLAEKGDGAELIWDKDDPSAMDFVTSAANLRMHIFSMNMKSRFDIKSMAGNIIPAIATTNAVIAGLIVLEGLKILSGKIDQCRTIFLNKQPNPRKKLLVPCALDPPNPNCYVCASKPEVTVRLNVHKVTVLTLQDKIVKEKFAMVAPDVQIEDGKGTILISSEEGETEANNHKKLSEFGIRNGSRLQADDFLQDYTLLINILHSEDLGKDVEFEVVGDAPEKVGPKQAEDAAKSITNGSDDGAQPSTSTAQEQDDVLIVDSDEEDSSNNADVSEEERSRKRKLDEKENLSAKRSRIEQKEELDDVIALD
assay info: blockers of UBC9-mediated SUMO conjugation – biochemical, AlphaScreen, SUMOylation inhibitor project, confirmation (AID 2018)
Type: functional
Active and inactive are the calls of the source.
endpoint label: IC50

# example entries with known answers
O=C1NC(=S)NC(=O)C1=NNc1ccc(-c2ccccc2)cc1[N+](=O)[O-]; 4.11 µM (active)
O=C(COC(=O)c1cc(NS(=O)(=O)c2cccs2)ccc1O)Nc1cc(Cl)ccc1Cl; 28.8 µM (active)
C=CCC(Nc1ccccc1)C12C=CC(O1)C(C(=O)OC)=C2C(=O)OC (stereo unspecified); 0.54 µM (active)
Cc1ccc(NC(=O)Cn2c(O)c(N=NC(=O)c3cc4ccccc4cc3O)c3ccccc32)cc1; 17 µM (active)
CCOC(=O)Cn1/c(=N/C(=O)c2sc3ccccc3c2Cl)sc2cc(S(N)(=O)=O)ccc21; 11.8 µM (active)

Query compound follows.
// returns reported IC50 for input O=C(Nc1ccc2oc(=O)ccc2c1)c1ccc(-c2cccc(Cl)c2)o1
15.8 µM (active)

====

target or test system: Luciferin 4-monooxygenase (Photinus pyralis)
Sequence (P08659 whole entry): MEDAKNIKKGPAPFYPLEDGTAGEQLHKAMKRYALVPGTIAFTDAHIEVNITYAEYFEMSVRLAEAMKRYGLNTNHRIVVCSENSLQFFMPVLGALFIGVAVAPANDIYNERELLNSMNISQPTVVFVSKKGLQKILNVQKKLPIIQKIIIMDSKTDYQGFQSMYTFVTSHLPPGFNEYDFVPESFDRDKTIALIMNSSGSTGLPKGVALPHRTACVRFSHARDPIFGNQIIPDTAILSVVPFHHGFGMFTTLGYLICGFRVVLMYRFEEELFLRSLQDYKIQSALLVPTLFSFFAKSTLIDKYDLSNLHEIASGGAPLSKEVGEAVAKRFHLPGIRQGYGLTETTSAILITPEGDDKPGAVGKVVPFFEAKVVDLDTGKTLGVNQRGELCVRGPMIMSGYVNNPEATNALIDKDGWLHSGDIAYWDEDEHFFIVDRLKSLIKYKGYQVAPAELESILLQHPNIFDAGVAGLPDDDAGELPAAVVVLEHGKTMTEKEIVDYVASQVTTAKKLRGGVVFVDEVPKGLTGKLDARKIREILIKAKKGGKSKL
assay info: Counter Screen for Luciferase-based Assay Positives. [Related pubchem assays: 620, 618, 411 ]
Active and inactive are the calls of the source.
EC50 reference

# example entries with known answers
COc1cccc(C(=O)NCCC2=CCCCC2)c1; < 200 nM (active)
COc1ccc(C2=Nc3ccccc3OC2)cc1; < 200 nM (active)
CCCC(=O)Nc1ccc(-c2nc3cc(C)ccc3o2)cc1; 210 nM (active)

// returns reported EC50 for input Cc1ccc2nc(-c3cc(N)cc(N)c3)oc2c1
1010 nM (active)

====

IC50 reference
target or test system: Kappa-type opioid receptor (Homo sapiens, UniProt P41145)
Sequence (P41145 whole entry): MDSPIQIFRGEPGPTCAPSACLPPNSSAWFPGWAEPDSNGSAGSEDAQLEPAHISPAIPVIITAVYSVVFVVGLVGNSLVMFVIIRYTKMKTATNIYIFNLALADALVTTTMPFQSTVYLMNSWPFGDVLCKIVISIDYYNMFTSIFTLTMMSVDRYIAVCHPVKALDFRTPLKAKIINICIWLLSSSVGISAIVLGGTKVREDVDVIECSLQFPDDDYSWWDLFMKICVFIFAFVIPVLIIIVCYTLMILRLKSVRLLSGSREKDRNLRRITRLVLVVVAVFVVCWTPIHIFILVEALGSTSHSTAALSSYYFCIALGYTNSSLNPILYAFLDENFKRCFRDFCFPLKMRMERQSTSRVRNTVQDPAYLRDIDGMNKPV
Type: functional
Write down the numeric answer in µM and omit the unit.

COc1ccc(-n2nc(C#N)c(Cl)cc2=O)cc1; 14

Query compound follows.
// returns reported IC50 for input Cc1cccc(C(=O)NC2CC3CCCC(C2)N3Cc2ccccc2)c1 (centres undefined)
19.9

====

System: INS1
assay info: INS-1E survival protection against cytokine death – cell-based, luminescence, retest, dose response (AID 449756);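 note: cell death triggered by IL-1 beta plus TNF-alpha plus IFN-gamma mixture; protective hits raise ATP signal compared with cytokine alone wells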
Format: functional
setup conditions: Rattus norvegicus
Activity calls are given as the source filed them.
Outcomes you can answer with include only these: label 1 = active, label 0 = inactive

CC1=C/C(=N\OS(=O)(=O)c2ccccc2)C(C(C)C)=CC1=O; label 1

What did the test return for Cc1ccc(NC(=O)Cn2c(O)c(N=NC(=O)c3cc4ccccc4cc3O)c3ccccc32)cc1 ?
label 1

====

target or test system: DNA dC->dU-editing enzyme APOBEC-3G (Homo sapiens)
Sequence (Q9HC16 whole entry): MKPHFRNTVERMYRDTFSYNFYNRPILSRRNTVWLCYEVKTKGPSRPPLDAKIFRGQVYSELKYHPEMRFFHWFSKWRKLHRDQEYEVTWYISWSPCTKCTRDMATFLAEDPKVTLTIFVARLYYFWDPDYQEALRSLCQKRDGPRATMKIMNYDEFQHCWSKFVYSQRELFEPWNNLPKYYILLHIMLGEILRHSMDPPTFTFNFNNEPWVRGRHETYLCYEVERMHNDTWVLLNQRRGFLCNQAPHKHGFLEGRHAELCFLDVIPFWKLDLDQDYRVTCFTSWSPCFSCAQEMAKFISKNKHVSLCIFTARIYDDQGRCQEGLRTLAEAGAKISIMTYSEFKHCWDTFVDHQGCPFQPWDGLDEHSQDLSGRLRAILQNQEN
assay info: Dose Response confirmation of small molecule APOBEC3G DNA Deaminase Inhibitors via a fluorescence-based single-stranded DNA deaminase assay. [Related pubchem assays (depositor defined):AID493012, AID493028]
Type: functional
Calls of active or inactive are those of the source.
endpoint label: IC50

# example entries with known answers
CCn1c(=O)c2c3c(sc2n2c(=S)[nH]nc12)CCC3; 4.78 µM (active)
CSS(=O)(=O)c1cccc2cccnc12; 9.66 µM (active)
CCCCCn1c(=O)c2ccccc2n2c(S)nnc12; 1.47 µM (active)

Query molecule follows.
// returns reported IC50 for input CC(C)(C)c1cc(C(=S)N2CCN(CCO)CC2)cc(C(C)(C)C)c1O
13.4 µM (active)

====

IC50 reference
target or test system: UniProtKB Q9H0H5
Sequence (Q9H0H5 whole entry): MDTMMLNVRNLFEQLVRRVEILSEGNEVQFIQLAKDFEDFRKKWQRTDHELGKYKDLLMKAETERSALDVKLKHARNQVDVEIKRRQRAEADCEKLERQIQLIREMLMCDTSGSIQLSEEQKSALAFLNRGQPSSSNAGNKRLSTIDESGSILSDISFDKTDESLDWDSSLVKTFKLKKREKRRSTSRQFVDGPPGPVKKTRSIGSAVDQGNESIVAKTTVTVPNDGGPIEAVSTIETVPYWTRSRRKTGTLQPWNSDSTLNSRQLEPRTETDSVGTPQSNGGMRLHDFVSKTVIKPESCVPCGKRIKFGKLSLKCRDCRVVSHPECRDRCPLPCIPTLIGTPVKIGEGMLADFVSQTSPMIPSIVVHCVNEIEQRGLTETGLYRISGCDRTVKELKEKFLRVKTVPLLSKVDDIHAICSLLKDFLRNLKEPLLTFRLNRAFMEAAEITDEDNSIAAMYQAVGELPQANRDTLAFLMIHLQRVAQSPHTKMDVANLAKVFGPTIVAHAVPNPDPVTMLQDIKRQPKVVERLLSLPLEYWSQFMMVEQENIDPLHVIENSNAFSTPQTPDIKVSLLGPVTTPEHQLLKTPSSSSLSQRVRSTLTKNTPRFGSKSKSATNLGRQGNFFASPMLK
assay info: blockers of MgcRacGAP-driven Rac1 GTP hydrolysis – biochemical, ADP Hunter fluorescence, primary and confirmatory, confirmation (AID 624330)
Assay type: functional
The source made the active and inactive calls.

# example entries with known answers
O=C(O)CCn1cc(C=C2C(=O)NC(=O)NC2=O)c(-c2ccc(Br)cc2)n1; 95.3 µM (active)
O=C1c2cccc(NCCCNCCO)c2C(=O)c2cccc(NCCCNCCO)c21; 27.8 µM (active)
COc1ccc(CN2C(=O)/C(=C\NNC(=O)c3cccnc3)c3ccccc3C2=O)cc1; 137 µM (active)
CCn1c(=O)c2c3c(sc2n2c(=S)[nH]nc12)CCC3; 26.4 µM (active)

// returns reported IC50 for input CCN(CC)CCCC(C)NC(=O)c1c(NC(=O)c2ccccc2)sc2c1CCCC2 (stereo not given)
144 µM (active)
